Sourced from patent US6737383B1

- System: wild oat
- ASSAY_OVERVIEW: Test B pre/postemergence wild oat
- Format: in vivo, Avena fatua
- STUDY_CONDITIONS: Preemergence, Rate 62 g/ha; scale 0 to 10 (0 no effect, 10 complete control)
Parameter Wild oats plant response rating: see the listing below.

| COMPOUND | Wild oats plant response rating |
| --- | --- |
| COCCOCn1c(=O)on(C(=O)N(c2ccccc2)C(C)C)c1=O [Compound 564] | 0 |
| Cc1cccc(C)c1-n1c(=O)on(C(=O)N(Cc2ccccc2)C(C)C)c1=O [Compound 69] | 0 |
| C=CCn1c(=O)on(C(=O)N(c2ccc(F)cc2)C(C)C)c1=O [Compound 146] | 9 |
| CC(C)N(C(=O)n1oc(=O)n(C(C)c2ccccc2)c1=O)c1ccc(Cl)cc1 (centres unmarked) [Compound 133] | 0 |
| CC(C)N(C(=O)n1oc(=O)n(COCc2ccccc2)c1=O)c1ccccc1 [Compound 579] | 0 |

* * *

Parameter Rice plant response rating: see the listing below.
- Tested on: rice
- ASSAY_OVERVIEW: Test B flood test rice
- Assay type: in vivo, Oryza sativa
- STUDY_CONDITIONS: Rate 250 g/ha; Pre-emergence (flood test species); scale 0 to 10, 0 is no effect, 10 is complete control

| COMPOUND | Rice plant response rating |
| --- | --- |
| CCC=CCn1c(=O)on(C(=O)N(c2ccccc2)C(C)C)c1=O | 0 |
| CCOP(=O)(Cn1c(=O)on(C(=O)N(c2ccc(F)cc2)C(C)C)c1=O)OCC | 0 |
| CCOC(Cn1c(=O)on(C(=O)N(c2ccc(Cl)cc2)C(C)C)c1=O)OCC | 0 |
| CC(C)N(C(=O)n1oc(=O)n(C(C)C2CC2)c1=O)c1ccccc1 (stereo not shown) | 5 |

* * *

- Test system: sugar beet
- ASSAY_OVERVIEW: Test B pre/postemergence sugar beet
- Type: in vivo, Beta vulgaris
- STUDY_CONDITIONS: Rate 500 g/ha, Postemergence; scale 0 to 10, 0 is no effect, 10 is complete control
Parameter Sugarbeets plant response rating: see the listing below.

| COMPOUND | Sugarbeets plant response rating |
| --- | --- |
| CC(C)N(C(=O)n1oc(=O)n(CC(F)F)c1=O)c1ccc(Cl)cc1 | 4 |
| CC(C)N(C(=O)n1oc(=O)n(Cc2nnc(Cl)s2)c1=O)c1ccc(Cl)cc1 | 0 |
| CC(C)N(C(=O)n1oc(=O)n(CCCC#N)c1=O)c1ccc(F)cc1F | 4 |
| CC(C)N(C(=O)n1oc(=O)n(CF)c1=O)c1ccc(F)cc1 | 0 |
| CCOC(=O)CC(C(=O)OCC)n1c(=O)on(C(=O)N(c2ccc(Cl)cc2)C(C)C)c1=O (centres unmarked) | 0 |

* * *

Parameter Soybean plant response rating: see the listing below.
- System: soybean
- ASSAY_OVERVIEW: Test B pre/postemergence soybean
- Type: in vivo, Glycine max
- STUDY_CONDITIONS: Rate 62 g/ha, Postemergence; scale of 0 to 10 where 0 is no effect and 10 is complete control

| COMPOUND | Soybean plant response rating |
| --- | --- |
| CC(C)N(C(=O)n1oc(=O)n(C(C)C)c1=O)c1ccc(F)cc1F | 4 |
| Cc1nc(C)c(-n2c(=O)on(C(=O)N(c3ccccc3)C(C)C)c2=O)s1 | 0 |
| Cc1ccc(N(C(=O)n2oc(=O)n(C(C)C)c2=O)C(C)C)cc1 | 3 |
| CC(C)N(C(=O)n1oc(=O)n(CCC(F)(F)F)c1=O)c1ccc(F)cc1 | 3 |
| CC(C)N(C(=O)n1oc(=O)n(C(C)c2ccccc2)c1=O)c1ccc(Cl)cc1 (centres unmarked) | 1 |
